# procedureSummary: qHTS for Inhibitors of Inflammasome Signaling: IL-1-beta AlphaLISA Primary Screen; further: on the % scale 0 is the no-effect control and ±100 the full control effect
# details: THP-1 LPS/ATP IL-1B secretion, 16 h; at 57.5 µM, stronger effect = lower value
The campaign covered roughly 360,000 compounds. About 17,000 (4.7%) were called active. Another 5% or so got no clear call; they are omitted. What follows is part of a selection rich in actives, with near analogues and random picks from the rest.
activity change strictly under -10% means 1; at -10% or over means 0.

COc1ccc(N)cc1NC(=O)CN1CCOCC1 | 0

Qu. Here's an entry: CCCCN(C(C)=O)c1ccc2c(c1)C1CC2CCN1Cc1ccccc1 (stereo not given) . Is its activity change below -10%?
Ans. 1

Qu. Also, "CCOC1=C2[C@H]([C@H]3C(=O)N(c4ccccc4)C(=O)[C@H]3C1)[C@@H](c1ccccc1)N(S(=O)(=O)c1ccc(C)cc1)[C@H]2c1ccccc1" please.
Ans. 0

Qu. Also, COc1ccc(NC(=O)C(c2ccncc2)n2c(=O)c(-c3cc4ccccc4[nH]3)nc3ccccc32)cc1 (stereo not given) please.
Ans. 1
